Entry source: PubChem BioAssay

Molecular target: Concanavalin-A (Canavalia ensiformis)
Assay: ConA small-molecule binders, primary screen, artefact control for SMM control protein annotation, biochemical, small-molecule microarray, Alexa647 label, 635 nm (AID 1127);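 also: z combines 667 nm emission intensity with signal-to-noise across three replicate slides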
Conditions: ConA-A647 binding fluorescence, higher = more signal
Threshold check on composite z-score: at or above 0.9 gives class 1, strictly below gives class 0.

• C=C(/C(=C/C[C@@H](OC(=O)c1ccncc1)c1ccccc1OCCO)c1cc(C(=O)OC)ccc1OC)C(C)C = class 0
• C=CC1c2cc(O)c(OC)cc2CCN1Cc1sc2ccccc2c1Cl (stereo not given) = class 0
• C=CCOC(=O)[C@H]1[C@@H]2C(=O)O[C@@H](c3ccccc3)[C@@H](c3ccccc3)N2[C@@H](c2ccc(OCCOC(=O)[C@H]3C[C@H]4C(=O)N[C@@H](Cc5ccccc5)C(=O)N4[C@H]3c3cccc(OCCO)c3)cc2)[C@]12C(=O)Nc1ccc(I)cc12 = class 1
• C=CC[C@@H](OC(=O)Nc1ccc(OC)cc1)c1ccc(OCCO)cc1 = class 0
• COC(=O)[C@@]1(Cc2ccccc2)[C@H]2c3cc(C(=O)N4CCCC4)n(Cc4cc(F)cc5c4OCOC5)c3C[C@H]2CN1C(=O)c1ccccc1 = class 0

----------
Test: binders of probe aFGF2 on microarray, primary screen, stem cell growth factor project, biochemical, small-molecule microarray, fluorescence 635/667 (AID 1067);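 also: measures binding of biotinylated aFGF2 protein to printed compounds on slides; z-score merges feature fluorescence and signal-to-noise across triplicate slides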
Conditions: higher = more signal
Threshold check on composite z-score: at or above -0.09 gives y, strictly below gives n.

• O=c1cccc(-c2ccc(C(F)(F)F)cc2)o1 = y
• C=CCOC(=O)[C@H]1[C@@H]2C(=O)O[C@@H](c3ccccc3)[C@@H](c3ccccc3)N2[C@@H](c2ccc(OCCOC(=O)[C@H]3C[C@H]4C(=O)N[C@@H](CCCC[N+](C)(C)C)C(=O)N4[C@H]3c3cccc(OCCO)c3)cc2)[C@]12C(=O)Nc1ccc(I)cc12 = n
• CC(C)C(=C=CC[C@H](O)c1ccc(OCCO)cc1)C[C@H](O)c1cc(Cl)cc(Cl)c1O = y

----------
Test system: Human papillomavirus type 1a protein E7 (residues 44-93)
Experiment: HPV1a E7 fragment binders on microarrays, primary screen, biochemical, small-molecule microarray, residues 44-93, 635 nm fluorescence (AID 1108);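 also: E7 fragment applied at 1 µg/mL in TBST for 1 h at 4 C; score combines spot fluorescence with its signal to noise ratio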
Details: small-molecule microarray binding, fluorescence 635 nm; higher = more signal
measured metric: composite z-score

- CC(C)c1ccc(NN2C(C(O)c3ccco3)C=CC3C(=O)N(c4ccccc4)C(=O)C32)cc1 (stereo unspecified): 0.729
- CCCN1C(=O)[C@]2(Cc3ccccc3)N=C(c3ccc(OCCCO)cc3)O[C@@H]2c2ccccc21: 1.06
- C=CCOC(=O)[C@@H]1[C@H]2C(=O)O[C@H](c3ccccc3)[C@H](c3ccccc3)N2[C@H](c2ccc(OCCOC(=O)[C@H]3C[C@H]4C(=O)N[C@@H](CC(C)C)C(=O)N4[C@H]3c3ccc(O)cc3)cc2)[C@@]12C(=O)Nc1ccc(I)cc12: 0.719
- CN(C)C(=O)[C@@]1(Cc2ccccc2N=[N+]=[N-])COC(c2ccc(OCCCO)cc2)=N1: 1
- COC(=O)[C@@]1(Cc2ccccc2)[C@H]2c3cc(C(=O)N4CCCC4)n(Cc4ccsc4Br)c3C[C@H]2CN1C(=O)c1ccccc1: 1.45
- C=CCNC(=O)[C@@H]1[C@H]2C(=O)O[C@H](c3ccccc3)[C@H](c3ccccc3)N2[C@H](c2ccccc2OCCO)[C@@]12C(=O)N(C(=O)OCCOC)c1ccc(C#CC3=CCCCC3)cc12: 0.829
